Hey, just so you know, these numbers are from patent US20260242735A1.

biological target: human CD33 D140A (human, UniProt P20138 18-364); experiment: flow cytometry on HEK293-T, alanine scan
Sequence (P20138 18-364 D140A limits assumed): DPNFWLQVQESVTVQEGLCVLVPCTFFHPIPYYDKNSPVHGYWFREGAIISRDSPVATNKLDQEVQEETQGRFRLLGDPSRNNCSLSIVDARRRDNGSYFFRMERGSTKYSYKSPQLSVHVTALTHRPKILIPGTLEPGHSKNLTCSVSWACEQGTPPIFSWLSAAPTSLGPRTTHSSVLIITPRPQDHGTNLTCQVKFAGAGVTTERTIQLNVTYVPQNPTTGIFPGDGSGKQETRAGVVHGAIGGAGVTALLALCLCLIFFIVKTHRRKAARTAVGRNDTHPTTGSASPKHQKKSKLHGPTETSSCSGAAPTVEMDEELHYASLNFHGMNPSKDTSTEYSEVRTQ
reported.property: Mean % WT Binding (% WT binding)
The reply should be a number in % WT binding, with the unit left off.

INPUT: Fill in the blank: the reported Mean % WT Binding of Refmab #1 (antibody, V domains shown, The alanine scan used IgG or Fab; also called hP67.6) VH: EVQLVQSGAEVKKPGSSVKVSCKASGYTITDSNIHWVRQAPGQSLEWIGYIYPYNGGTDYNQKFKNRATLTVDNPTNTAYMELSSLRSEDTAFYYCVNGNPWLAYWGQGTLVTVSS VL: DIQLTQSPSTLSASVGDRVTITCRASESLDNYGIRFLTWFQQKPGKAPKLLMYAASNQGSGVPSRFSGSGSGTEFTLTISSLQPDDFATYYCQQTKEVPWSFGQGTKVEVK is ____.
OUTPUT: 88.7
